# Assay system: human RXFP1 (Homo sapiens)
# Construct: expressed in transfected cells
# Procedure summary: RXFP1 cAMP assay (hRXFP1 HEK293 cAMP assay, HTRF)
# Type: cell-based
# Assay setup: HEK293 cells stably expressing human RXFP1, 30 min at room temperature, read-out: cAMP hRXFP1 HEK293 Assay EC50
Endpoint name: EC50 (nM)

CCOC(=O)c1cc2cc(-c3ccc(OC)c(C(=O)N[C@@H]4C5CCC(/C5=C/C(F)(F)F)[C@@H]4C(=O)Nc4ccc(F)c(C(F)(F)F)c4)c3)ccc2[nH]1 (some centres unmarked) [compound 297] :: 73
COc1ccc(C2=NOC(C(C)O)C2)cc1C(=O)N[C@H]1[C@@H](C(=O)Nc2ccc(F)c(C(F)(F)F)c2)[C@H]2CC[C@@H]1/C2=C\C1CC1 (single isomer, unassigned) [compound 598] :: 102
COc1cc(F)c(F)cc1C(=O)N[C@@H]1C2CCC(/C2=C/c2cccc(-c3ccccc3)c2)[C@@H]1C(=O)Nc1ccc(F)c(C(F)(F)F)c1 (some centres unmarked) [compound 15] :: 110
COc1ccc(-c2cc(C(=O)NS(C)(=O)=O)ccc2F)cc1C(=O)N[C@@H]1C2CCC(/C2=C/Br)[C@@H]1C(=O)Nc1ccc(F)c(C(F)(F)F)c1 (some centres unmarked) [compound 161] :: 110
O=C(O)c1ccc(F)c(-c2ccc(OCCO)c(C(=O)N[C@@H]3C4CCC(/C4=C/C(F)(F)F)[C@@H]3C(=O)Nc3ccc(F)c(C(F)(F)F)c3)c2)c1 (some centres unmarked) [compound 321] :: 91

---

# Assay system: human RXFP1 (Homo sapiens, UniProt Q9HBX9)
# Construct: expressed in transfected cells
# Sequence (Q9HBX9 whole entry): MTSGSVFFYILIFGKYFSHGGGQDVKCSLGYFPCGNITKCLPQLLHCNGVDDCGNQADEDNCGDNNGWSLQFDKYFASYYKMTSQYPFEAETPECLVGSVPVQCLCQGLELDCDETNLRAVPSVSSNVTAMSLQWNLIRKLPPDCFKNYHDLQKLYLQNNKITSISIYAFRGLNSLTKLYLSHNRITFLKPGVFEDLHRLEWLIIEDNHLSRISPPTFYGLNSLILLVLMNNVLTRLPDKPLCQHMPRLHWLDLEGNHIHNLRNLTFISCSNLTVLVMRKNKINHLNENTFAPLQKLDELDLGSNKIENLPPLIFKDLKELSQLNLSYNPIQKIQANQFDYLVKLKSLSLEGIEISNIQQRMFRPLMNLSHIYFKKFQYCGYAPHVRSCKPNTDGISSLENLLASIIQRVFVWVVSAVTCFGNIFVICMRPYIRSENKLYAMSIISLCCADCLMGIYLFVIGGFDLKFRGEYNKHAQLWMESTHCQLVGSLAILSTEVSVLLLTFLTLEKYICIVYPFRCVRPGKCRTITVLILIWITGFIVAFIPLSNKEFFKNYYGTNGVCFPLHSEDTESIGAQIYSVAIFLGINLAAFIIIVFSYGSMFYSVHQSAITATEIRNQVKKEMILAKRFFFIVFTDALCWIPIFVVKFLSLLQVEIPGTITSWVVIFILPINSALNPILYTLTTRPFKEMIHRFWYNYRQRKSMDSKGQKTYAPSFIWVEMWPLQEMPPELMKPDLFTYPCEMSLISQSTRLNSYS
# Procedure summary: RXFP1 cAMP assay (hRXFP1 HEK293 cAMP assay, HTRF)
# Assay type: cell-based
# Assay setup: HEK293 cells stably expressing human RXFP1, 30 min at room temperature, read-out: cAMP hRXFP1 HEK293 Assay EC50
Endpoint name: EC50 (nM)

COc1ccc(C2=NOC3COCC23)cc1C(=O)N[C@H]1[C@@H](C(=O)NCCC(C)(C)C)[C@H]2CC[C@@H]1/C2=C\C1CC1 (some centres unmarked) [compound 612] :: 134
COc1ccc(-c2cc(C(COC(=O)Nc3ccccc3)C(F)(F)F)ccc2F)cc1C(=O)N[C@H]1[C@@H](C(=O)Nc2ccc(F)c(C(F)(F)F)c2)[C@H]2CC[C@@H]1/C2=C\C1CC1 (some centres unmarked) [compound 876] :: 0.9
COc1ccc(C2=NOC(CC(=O)O)C2)cc1C(=O)N[C@@H]1C2CCC(/C2=C/C2CCC2)[C@@H]1C(=O)Nc1ccc(F)c(C(F)(F)F)c1 (some centres unmarked) [compound 394] :: 49

[P] COc1ccc(-c2cc(C(=O)O)ccc2F)cc1C(=O)N[C@@H]1C2CCC(/C2=C/C2CC2)[C@@H]1C(=O)NC(C)C (some centres unmarked) [compound 300]
[Q] COc1ccc(C2=NOC3COCC23)cc1C(=O)N[C@H]1[C@@H](C(=O)NC(C)(C)C#N)[C@H]2CC[C@@H]1/C2=C\C1CC1 (some centres unmarked) [compound 633]
Asked: Rank P against Q by their EC50 values and give the higher one. Please identify the chosen entry by its label.
Given back: P
(P: 575 nM, Q: 190 nM)

---

# Assay system: human RXFP1 (Homo sapiens)
# Construct: expressed in transfected cells
# Procedure summary: RXFP1 cAMP assay (hRXFP1 HEK293 cAMP assay, HTRF)
# Type: cell-based
# Assay setup: HEK293 cells stably expressing human RXFP1, 30 min at room temperature, read-out: cAMP hRXFP1 HEK293 Assay EC50
Endpoint name: EC50 (nM)

COc1ccc(-c2cc([C@H](OC(=O)NC3CCC3)C(F)(F)F)ccc2F)cc1C(=O)N[C@H]1[C@@H](C(=O)Nc2ccc(F)c(C(F)(F)F)c2)[C@H]2CC[C@@H]1/C2=C\C[C@@H](O)C(F)(F)F :: 3.9
O=C(N[C@H]1[C@@H](C(=O)Nc2ccc(F)c(C(F)(F)F)c2)[C@H]2CC[C@@H]1/C2=C\C1CC1)c1cc(C2=NOC3COCC23)ccc1OCCCF (stereo partly drawn) :: 4
COc1ccc(C2=NOC3CC(CO)CC23)cc1C(=O)N[C@H]1[C@@H](C(=O)Nc2ccc(F)c(C(F)(F)F)c2)[C@H]2CC[C@@H]1/C2=C\c1csc(C)n1 (stereo partly drawn) :: 4.1

---

# Assay system: human RXFP1 (Homo sapiens)
# Construct: expressed in transfected cells
# Procedure summary: RXFP1 cAMP assay (hRXFP1 HEK293 cAMP assay, HTRF)
# Assay type: cell-based
# Assay setup: HEK293 cells stably expressing human RXFP1, 30 min at room temperature, read-out: cAMP hRXFP1 HEK293 Assay EC50
# Method: RXFP1 Cyclic Adenosine Monophosphate (cAMP) Assays. […] Cells were dissociated and suspended in assay buffer. The assay buffer was HBSS buffer (with calcium and magnesium) containing 20 mM HEPES, 0.05% BSA, and 0.5 mM IBMX. […] The level of intracellular cAMP was determined using the HTRF HiRange cAMP assay reagent kit (Cisbio) according to manufacturer's instructions. […]
Endpoint name: EC50 (nM)

COc1ccc(-c2cc(NC(=O)CC(=O)O)ccc2F)cc1C(=O)N[C@@H]1C2CCC(/C2=C/c2cnoc2)[C@@H]1C(=O)Nc1ccc(F)c(C(F)(F)F)c1 (stereo partly drawn) [compound 175] :: 17

[1] COc1ccc(-c2cc(C(CO)NC(=O)C3CCOCC3)ccc2F)cc1C(=O)N[C@@H]1C2CCC(/C2=C/C2CC2)[C@@H]1C(=O)Nc1ccc(F)c(C(F)(F)F)c1 (stereo partly drawn) [compound 257]
[2] COc1ccc(-c2cc(C(OC(=O)NCC(F)(F)F)C(F)(F)F)ccc2F)cc1C(=O)N[C@@H]1C2CCC(/C2=C/C2CC2)[C@@H]1C(=O)Nc1ccc(F)c(C(F)(F)F)c1 (stereo partly drawn) [compound 220]
Asked: Param metric = EC50; output whichever of 1 , 2 has the minimum value. Please identify the chosen entry by its label.
Given back: 2

---

# Assay system: human RXFP1 (Homo sapiens, UniProt Q9HBX9)
# Construct: expressed in transfected cells
# Procedure summary: RXFP1 cAMP assay (hRXFP1 HEK293 cAMP assay, HTRF)
# Format: cell-based
# Assay setup: HEK293 cells stably expressing human RXFP1, 30 min at room temperature, read-out: cAMP hRXFP1 HEK293 Assay EC50
pEC50: −log10 of the molar value.
Endpoint name: pEC50

// known answers, use as guide
COc1ccc(C2=NOC3CC(CO)CC23)cc1C(=O)N[C@H]1[C@@H](C(=O)Nc2ccc(F)c(C(F)(F)F)c2)[C@H]2CC[C@@H]1/C2=C\CC1CC(F)(F)C1 (stereo partly shown) [compound 959] :: 8.21
COc1ccc(-c2cc(C(O)C(=O)O)ccc2F)cc1C(=O)NC1C2CCC(/C2=C/CCC(C)(C)C)C1C(=O)Nc1ccc(F)c(C(F)(F)F)c1 (stereo not shown) [compound 354] :: 7.96
COc1c(F)cc(C2=NOC3CC(CO)CC23)cc1C(=O)N[C@H]1[C@@H](C(=O)Nc2ccc(F)c(C(F)(F)F)c2)[C@H]2CC[C@@H]1/C2=C\CC(O)C(F)(F)F (stereo partly shown) [compound 836] :: 8.39
COc1ccc(C2=NOC3COCC23)cc1C(=O)N[C@H]1[C@@H](C(=O)NC2Cc3ccccc3C2)[C@H]2CC[C@@H]1/C2=C\C1CC1 (stereo partly shown) [compound 610] :: 6.88

[P] C=C/C=C1\C2CCC1[C@H](C(=O)Nc1ccc(F)c(C(F)(F)F)c1)[C@@H]2NC(=O)c1cc(-c2cc(C(=O)NC)ccc2F)ccc1OC (stereo partly shown) [compound 164]
[Q] COC(=O)N1CCC=C(c2ccc(OC)c(C(=O)N[C@@H]3C4CCC(C4=C(C)C)[C@@H]3C(=O)Nc3ccc(F)c(C(F)(F)F)c3)c2)C1 (stereo partly shown) [Example 134]
Asked: Rank P against Q by their pEC50 values and give the higher one. Please identify the chosen entry by its label.
Given back: P
(P: 7.85, Q: 5.85)

---

# Assay system: human RXFP1 (Homo sapiens, UniProt Q9HBX9)
# Construct: expressed in transfected cells
# Procedure summary: RXFP1 cAMP assay (hRXFP1 HEK293 cAMP assay, HTRF)
# Type: cell-based
# Assay setup: HEK293 cells stably expressing human RXFP1, 30 min at room temperature, read-out: cAMP hRXFP1 HEK293 Assay EC50
pEC50: −log10 of the molar value.
Endpoint name: pEC50

[I] COc1cc(F)c(F)cc1C(=O)N[C@@H]1C2CCC(/C2=C/c2cnn(Cc3ccccc3)c2)[C@@H]1C(=O)Nc1ccc(F)c(C(F)(F)F)c1 (stereo partly drawn)
[II] COc1ccccc1/C=C1\C2CCC1[C@H](C(=O)Nc1ccc(F)c(C(F)(F)F)c1)[C@@H]2NC(=O)c1cc(F)c(F)cc1OC (stereo partly drawn)
[III] COc1ccc(-c2cc(C(=O)OC(C)(C)C)ccc2F)cc1C(=O)N[C@@H]1C2CCC(/C2=C/C(F)(F)F)[C@@H]1C(=O)Nc1ccc(F)c(C(F)(F)F)c1 (stereo partly drawn)
Asked: Put the above compounds in order of rising pEC50, beginning with the smallest. I would appreciate it if you listed the labels in the requested order.
Given back: II, I, III
(II: 5.85, I: 6.24, III: 7.33)
